Cited source: the supplement of paper PMC12645437

Target: T1, CRBN, Q96SW2;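 note: pooled lentiviral library of zinc finger degron-EGFP fusions in mCherry-positive Jurkat cells, FACS-sorted after compound exposure, with degron abundance counted by next-generation sequencing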
T1 chain: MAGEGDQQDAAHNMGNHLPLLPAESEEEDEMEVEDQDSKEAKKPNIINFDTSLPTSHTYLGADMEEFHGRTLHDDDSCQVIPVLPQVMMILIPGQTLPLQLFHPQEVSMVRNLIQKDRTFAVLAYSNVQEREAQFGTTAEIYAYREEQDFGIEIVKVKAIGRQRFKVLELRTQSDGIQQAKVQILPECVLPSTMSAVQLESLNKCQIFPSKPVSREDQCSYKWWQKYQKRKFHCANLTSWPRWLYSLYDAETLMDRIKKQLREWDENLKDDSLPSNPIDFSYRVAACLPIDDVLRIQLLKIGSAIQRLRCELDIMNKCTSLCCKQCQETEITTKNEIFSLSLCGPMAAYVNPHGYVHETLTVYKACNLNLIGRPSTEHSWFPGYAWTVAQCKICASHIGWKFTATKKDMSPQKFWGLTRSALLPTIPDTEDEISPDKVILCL
Test: log2 fold change of degron read counts, EGFP-low vs EGFP+ sorted cells (limma voom), compound-induced degradation; higher = more compound-induced degradation of the degron-EGFP fusion; degrons are variants of IKZF1/3 zinc finger 2; compound dose not given here
Conditions: Jurkat; 18 h; compound: compound 33 (diphenyl IMiD analogue)
Whole data set: some 8,300 sequences, median “log2 fold change of degron read counts, EGFP-low vs EGFP+ sorted cells (limma voom), compound-induced degradation” near -1.1, cut for the highest 2% near 3.2. Shown is part of a subset that was picked to be rich in the highest values.
Classes are defined on log2 fold change of degron read counts with ranges category 1: < -1; category 2: ≥ -1 and < 0.5; category 3: ≥ 0.5

A selection of reference data follows.
Seq text	Class label
FTCDICGAKFTQKGNLLRHIKL [46F_47T_49D_50I_52G_53A_54K_55F_67L_, Q9UKT9]	category 1
FLCDICGAKFTQKGNLLRHIKL [46F_47L_49D_50I_52G_53A_54K_55F_67L_, Q9UKT9]	category 1
FDCEVCGAMFTQKGNLLRHIKL [46F_47D_49E_50V_52G_53A_54M_55F_67L_, Q9UKT9]	category 2

# bin label for FWCDICGAKFTQKGNLLRHIKL [46F_47W_49D_50I_52G_53A_54K_55F_67L_, Q9UKT9]
category 2

# bin label for FSCEVCGAMFTQKGNLLRHIKL [46F_47S_49E_50V_52G_53A_54M_55F_67L_, Q9UKT9]
category 3

# bin label for FGCEVCGAMFTQKGNLLRHIKL [46F_47G_49E_50V_52G_53A_54M_55F_67L_, Q9UKT9]
category 3

# bin label for FSCNICGAGFTQKGNLLRHIKL [46F_47S_49N_50I_52G_53A_54G_55F_67L_, Q9UKT9]
category 3

# bin label for FICDICGAKFTQKGNLLRHIKL [46F_47I_49D_50I_52G_53A_54K_55F_67L_, Q9UKT9]
category 2

# bin label for FKCDICGAKFTQKGNLLRHIKL [46F_47K_49D_50I_52G_53A_54K_55F_67L_, Q9UKT9]
category 1
